Listed here: items and their measured TGI.
Tested on: K-562 leukemia
Assay: NCI tumour cell line growth inhibition, 48 h

Below: 4 compounds and their reported TGI.
smilesRecord | TGI
CCOc1ccccc1NC(=O)CCC(=O)NN | > 100 µM
COc1ccc(-c2nn(-c3cccc(Cl)c3)cc2/C=C2\C(=N)N(c3ccccc3)N=C2N)cc1 | 32.6 µM
CCc1nc2c([nH]1)C(=O)c1ccccc1C2=O | > 100 µM
Cc1nc2ccccc2n1Cc1ccc(NC(=S)Nc2ccccc2)cc1 | > 100 µM

Ask: Please look up its TGI: `O=C1c2c(Br)sc(Br)c2[C@H]2OC(=S)N[C@@H]12`
Reply: 6.35 µM

Ask: Suppose we examine the compound `C=CCN(N=O)C(=O)ON1C(=O)CCC1=O` ; what TGI value has been reported?
Reply: > 100 µM
